Molecular target: T1, human VEGF (hVEGF) (human, UniProt P15692 181-395)
T1 construct: also called VEGF-A
T1 sequence: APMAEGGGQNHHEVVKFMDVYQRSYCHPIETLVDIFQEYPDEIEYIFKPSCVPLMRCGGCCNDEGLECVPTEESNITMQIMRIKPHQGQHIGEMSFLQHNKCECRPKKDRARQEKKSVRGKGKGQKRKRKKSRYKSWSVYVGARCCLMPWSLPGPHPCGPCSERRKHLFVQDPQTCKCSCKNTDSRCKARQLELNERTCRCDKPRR
Test: SPR
parameter: koff (s⁻¹)
Kindly answer with a numeric value in s⁻¹, unit omitted.

Q) What measured koff goes with G6.31 LC-F83A, LC-N94A, LC-T22D (Fab, name in Kabat numbering, V domains shown, Fab) VH: EVQLVESGGGLVQPGGSLRLSCAASGFTISDYWIHWVRQAPGKGLEWVAGITPAGGYTYYADSVKGRFTISADTSKNTAYLQMNSLRAEDTAVYYCARFVFFLPYAMDYWGQGTLVTVSS VL: DIQMTQSPSSLSASVGDRVTIDCRASQDVSTAVAWYQQKPGKAPKLLIYSASFLYSGVPSRFSGSGSGTDFTLTISSLQPEDAATYYCQQGYGAPFTFGQGTKVEIK ?
A) 0.000744

Q) Need koff of G6.31 AAEE (LC-N94A.LC-F83A.HC-A40E.HC-T57E) (Fab, V domains shown, Fab; also called HC-A40E, HC-T57E, LC-F83A, LC-N94A) VH: EVQLVESGGGLVQPGGSLRLSCAASGFTISDYWIHWVRQEPGKGLEWVAGITPAGGYEYYADSVKGRFTISADTSKNTAYLQMNSLRAEDTAVYYCARFVFFLPYAMDYWGQGTLVTVSS VL: DIQMTQSPSSLSASVGDRVTITCRASQDVSTAVAWYQQKPGKAPKLLIYSASFLYSGVPSRFSGSGSGTDFTLTISSLQPEDAATYYCQQGYGAPFTFGQGTKVEIK , thanks.
A) 0.000741

Q) Param item = G6.31 HC-A40E, HC-T57E (Fab, V domains shown, Fab) VH: EVQLVESGGGLVQPGGSLRLSCAASGFTISDYWIHWVRQEPGKGLEWVAGITPAGGYEYYADSVKGRFTISADTSKNTAYLQMNSLRAEDTAVYYCARFVFFLPYAMDYWGQGTLVTVSS VL: DIQMTQSPSSLSASVGDRVTITCRASQDVSTAVAWYQQKPGKAPKLLIYSASFLYSGVPSRFSGSGSGTDFTLTISSLQPEDFATYYCQQGYGNPFTFGQGTKVEIK ; retrieve measured koff.
A) 0.000804

Q) // query koff value for entry G6.31 HC-A40E, HC-T57E, LC-F83A, LC-N94A, LC-T22D (Fab, name in Kabat numbering, V domains shown, Fab) VH: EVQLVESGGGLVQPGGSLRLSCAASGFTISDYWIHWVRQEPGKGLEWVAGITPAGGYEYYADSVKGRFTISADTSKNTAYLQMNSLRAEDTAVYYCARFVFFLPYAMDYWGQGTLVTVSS VL: DIQMTQSPSSLSASVGDRVTIDCRASQDVSTAVAWYQQKPGKAPKLLIYSASFLYSGVPSRFSGSGSGTDFTLTISSLQPEDAATYYCQQGYGAPFTFGQGTKVEIK
A) 0.000718

Q) For the binder G6.31 LC-N94A.LC-F83A (Fab, V domains shown, Fab; also called LC-F83A, LC-N94A; LCcombo5) VH: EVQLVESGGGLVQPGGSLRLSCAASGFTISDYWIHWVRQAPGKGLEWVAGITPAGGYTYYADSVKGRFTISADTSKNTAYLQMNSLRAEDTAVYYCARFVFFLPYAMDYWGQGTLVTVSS VL: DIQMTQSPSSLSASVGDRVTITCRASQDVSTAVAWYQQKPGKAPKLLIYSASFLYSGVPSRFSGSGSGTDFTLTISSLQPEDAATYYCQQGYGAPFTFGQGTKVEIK , what koff is on record?
A) 0.00111
